# test-summary: Hansen solubility parameters
δD (dispersion) for assorted molecules
Expressed in cal^1/2 cm^−3/2, but write only the number.

Past entries and their recorded results:
- COC(C)=O [MA, methyl acetate]: 7.6
- FC(F)(F)c1ccc(Cl)cc1 [PCBTF, parachlorobenzotrifluoride]: 8.8
- Cc1ccccc1: 8.8

Now look at this entry.
Consider the molecule shown here: CC(=O)OC(C)(C)C [TBAc, tert-butyl acetate] What is its recorded δD (dispersion)?
7

====

Surface tension for assorted compounds
# test-summary: Physical/chemical characteristics of the solvents (specific gravity, flash point, boiling point, viscosity, surface tension, volatility)
# applied-conditions: at 20° C.
Expressed in dyn/cm, but write only the number.

Past entries and their recorded results:
- COC(C)=O [MA, methyl acetate]: 24.8
- Cc1ccccc1: 27.73

Consider the compound shown here: FC(F)(F)c1ccc(Cl)cc1 [PCBTF, parachlorobenzotrifluoride] What is its recorded Surface tension?
25

Also check CC(=O)OC(C)(C)C [TBAc, tert-butyl acetate]
22.4

====

# test-summary: Physical/chemical characteristics of the solvents (specific gravity, flash point, boiling point, viscosity, surface tension, volatility)
# applied-conditions: @25° C.
measure: Specific Gravity (@25° C.)
No unit in the answer, only the number.

* Cc1ccccc1 [Toluene, toluene] | 0.86
* COC(C)=O [MA, methyl acetate] | 0.93
* CC(=O)OC(C)(C)C [TBAc, tert-butyl acetate] | 0.87

Now look at this entry.
Consider the molecule shown here: FC(F)(F)c1ccc(Cl)cc1 [PCBTF, parachlorobenzotrifluoride] What is its recorded Specific Gravity (@25° C.)?
1.34

====

δH (hydrogen bonding) for assorted compounds
# test-summary: Hansen solubility parameters
Expressed in cal^1/2 cm^−3/2, but write only the number.

- COC(C)=O [MA, methyl acetate]: 3.7
- Cc1ccccc1: 0.98
- CC(=O)OC(C)(C)C [TBAc, tert-butyl acetate]: 2.9

Now look at this entry.
Consider the compound shown here: FC(F)(F)c1ccc(Cl)cc1 [PCBTF, parachlorobenzotrifluoride] What is its recorded δH (hydrogen bonding)?
1.9

====

δP (polar) for assorted molecules
# test-summary: Hansen solubility parameters
Expressed in cal^1/2 cm^−3/2, but write only the number.

• FC(F)(F)c1ccc(Cl)cc1 [PCBTF, parachlorobenzotrifluoride] = 2.9

Consider the molecule shown here: CC(=O)OC(C)(C)C [TBAc, tert-butyl acetate] What is its recorded δP (polar)?
1.7

Also check Cc1ccccc1 [Toluene, toluene]
0.68

Also check COC(C)=O [MA, methyl acetate]
3.5
